Target: COX-2 (Homo sapiens)
Construct: To induce COX-2, lipopolysaccharide (LPS) from E. coli; endogenous in cells; host or cells: heparinised human whole blood from donors, with COX-2 induced by E. coli LPS
Assay: Human COX-2 enzyme activity in human whole blood (LPS-induced, thromboxane B2 EIA)
Type: cell-based
Settings: 10 μM; human whole blood; LPS induction; read-out: COX-2 Inhibition (% at 10 μM)
For each record, write down the corresponding inhibition at 10 µM.
Give bare numbers, in %.

CC(O)CCOCc1cc(-c2ccc(S(C)(=O)=O)cc2)n(-c2ccccc2)n1 (stereo not shown) [Example 19b] | 100
Cc1ccc(-n2nc(COCCCO)cc2-c2ccc(S(C)(=O)=O)cc2)cc1 | 90
CS(=O)(=O)c1ccc(-c2cc(COCCO[N+](=O)[O-])nn2C2CCCCC2)cc1 [Example 15e] | 75

Let us move to another entry and its inhibition at 10 µM.
Incoming: Returns the measured inhibition at 10 µM for the input compound. Input: NS(=O)(=O)c1ccc(-c2c(-c3ccccc3)noc2COCC(F)(F)C(F)(F)CO[N+](=O)[O-])cc1 [Example 33b]
Outgoing: 100

###

Molecular target: COX-1 (Homo sapiens)
Construct: endogenous in cells; host or cells: heparinised human whole blood from donors, stimulated with the calcium ionophore A23187
Assay: Human COX-1 enzyme activity in human whole blood (A23187-stimulated, thromboxane B2 EIA)
Assay type: cell-based
Conditions: 100 μM; human whole blood; A23187 stimulation
Result Type: COX-1 Inhibition (% at 100 μM) (%)
Numbers only, in %.

Observe how each entry below is paired with its result.
CS(=O)(=O)c1ccc(-c2cc(/C=C\CCO)nn2C2CCCCC2)cc1 [Example 4e] | 45
NS(=O)(=O)c1ccc(-c2c(-c3ccccc3)noc2COCC(F)(F)CO[N+](=O)[O-])cc1 [Example 32d] | 0
NS(=O)(=O)c1ccc(-c2c(-c3ccccc3)noc2COCCS(=O)(=O)CCO[N+](=O)[O-])cc1 [Example 37c] | −15

// for each compound below, give its COX-1 Inhibition (% at 100 μM)
1. CS(=O)(=O)c1ccc(-c2cc(/C=C/CCO)nn2C2CCCCC2)cc1 [Example 21b]
2. CS(=O)(=O)c1ccc(-c2cc(CO[N+](=O)[O-])nn2C2CCCCCCC2)cc1 [Example 1h]

Outgoing:
1. 10
2. 60

###

Tested on: leukocytes in the exudate
Assay: Rat carrageenan air-pouch: cell infiltration (leukocytes in the exudate)
Type: in vivo
Details: 45 μmol/kg oral, 1 hour prior to carrageenan; exudate after 4 hours; male CD rat
Method: The carrageenan air pouch model was performed as described by Sedgwick et al., Agents Actions 18, 429-438, (1986) and Masferrer et al, Proc. Natl. Acad. Sci. 91, 3228-3232 (1994). […] After 4 hours the exudate was removed by pipette into a calibrated centrifuge tube and the volume measured. The number of leukocytes in the exudate was determined by cell counting with a Beckman Coulter Particle Counter with the lower threshold set to exclude red blood cells. […]
For each record, write down the corresponding Cell Infiltration (% Inhibition @ 45 μmol/kg).
One number for each entry, in %.

CS(=O)(=O)c1ccc(-c2cc(COCCCO[N+](=O)[O-])nn2-c2ccccc2)cc1 | 10
COc1ccc(-n2nc(C(=O)CCCO[N+](=O)[O-])cc2-c2ccc(S(C)(=O)=O)cc2)cc1 [Example 24e] | 43

// for each molecule below, give its Cell Infiltration (% Inhibition @ 45 μmol/kg)
1. CS(=O)(=O)c1ccc(-c2cc(C(=O)CCCO[N+](=O)[O-])nn2C2CCCCC2)cc1
2. CS(=O)(=O)c1ccc(-c2cc(C(=O)CCCO[N+](=O)[O-])nn2-c2ccc(F)cc2)cc1 [Example 13e]

Outgoing:
1. 42
2. 23

###

Tested on: PGE2 (prostaglandin E2)
Assay: Rat carrageenan air-pouch: PGE2 in the exudate
Format: in vivo
Settings: 45 μmol/kg oral, 1 hour prior to carrageenan; exudate after 4 hours; male CD rat
Result Type: PGE-2 (% Inhibition at @ 45 μmol/kg) (%)
Answers are plain numbers, in %.

Observe how each entry below is paired with its result.
COc1ccc(-n2nc(C(=O)CCCO[N+](=O)[O-])cc2-c2ccc(S(C)(=O)=O)cc2)cc1 [Example 24e] | 78
CS(=O)(=O)c1ccc(-c2cc(COCCCO[N+](=O)[O-])nn2-c2ccccc2)cc1 [Example 5e] | 40
CS(=O)(=O)c1ccc(-c2cc(C(=O)CCCO[N+](=O)[O-])nn2-c2ccc(F)cc2)cc1 [Example 13e] | 45

Incoming: Returns the measured PGE-2 (% Inhibition at @ 45 μmol/kg) for the input compound. Input: CS(=O)(=O)c1ccc(-c2cc(C(=O)CCCO[N+](=O)[O-])nn2C2CCCCC2)cc1 [Example 3f]
Outgoing: 45

###

For each record, write down the corresponding inhibition at 100 µM.
Target: COX-1 (Homo sapiens, UniProt P23219)
Construct: endogenous in cells; host or cells: heparinised human whole blood from donors, stimulated with the calcium ionophore A23187
Sequence (P23219 24-599): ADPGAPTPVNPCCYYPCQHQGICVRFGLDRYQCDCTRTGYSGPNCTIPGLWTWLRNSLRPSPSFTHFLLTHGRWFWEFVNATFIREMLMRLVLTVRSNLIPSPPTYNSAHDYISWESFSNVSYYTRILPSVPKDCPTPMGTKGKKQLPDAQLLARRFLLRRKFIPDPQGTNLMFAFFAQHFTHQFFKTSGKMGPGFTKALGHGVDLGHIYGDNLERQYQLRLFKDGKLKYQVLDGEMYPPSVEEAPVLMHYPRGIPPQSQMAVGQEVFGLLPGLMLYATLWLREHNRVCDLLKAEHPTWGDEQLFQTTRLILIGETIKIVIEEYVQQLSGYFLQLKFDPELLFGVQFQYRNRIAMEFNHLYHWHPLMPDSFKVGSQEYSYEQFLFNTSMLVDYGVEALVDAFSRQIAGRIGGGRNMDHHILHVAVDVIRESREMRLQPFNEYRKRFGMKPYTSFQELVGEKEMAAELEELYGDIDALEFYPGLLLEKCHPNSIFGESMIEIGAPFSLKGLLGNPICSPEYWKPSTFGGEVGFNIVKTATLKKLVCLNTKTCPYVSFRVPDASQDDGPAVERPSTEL
Assay: Human COX-1 enzyme activity in human whole blood (A23187-stimulated, thromboxane B2 EIA)
Type: cell-based
Settings: 100 μM; human whole blood; A23187 stimulation; read-out: COX-1 Inhibition (% at 100 μM)
Answers are plain numbers, in %.

Observe how each entry below is paired with its result.
CS(=O)(=O)c1ccc(-c2cc(C(F)(F)OCCCO[N+](=O)[O-])nn2-c2ccccc2)cc1 [Example 6f] | 80
CS(=O)(=O)c1ccc(-c2cc(C(=O)CCCO)nn2-c2ccc(Cl)cc2)cc1 [Example 44d] | 10
CS(=O)(=O)c1ccc(-c2cc(COCCCO[N+](=O)[O-])nn2C2CCCCC2)cc1 [Example 16c] | 10

Let us move to another entry and its inhibition at 100 µM.
Incoming: Returns the measured inhibition at 100 µM for the input compound. Input: CS(=O)(=O)c1ccc(-c2cc(COCCCO)nn2C2CCCCC2)cc1 [Example 16b]
Outgoing: 10

###

For each record, write down the corresponding melting point.

Observe how each entry below is paired with its result.
NS(=O)(=O)c1ccc(-c2c(-c3ccccc3)noc2COCC(F)(F)C(F)(F)C(F)(F)CO[N+](=O)[O-])cc1 [Example 34b] | 38 to 39 °C
Cc1ccc(-c2[nH]nc(COCCCO[N+](=O)[O-])c2-c2ccc(S(N)(=O)=O)cc2)cc1 [Example 20g] | 62 °C

// for each molecule below, give its melting point
1. CS(=O)(=O)c1ccc(-c2cc(/C=C\CCO[N+](=O)[O-])nn2C2CCCCC2)cc1
2. CS(=O)(=O)c1ccc(-c2cc(C(=O)CCCO[N+](=O)[O-])nn2-c2ccc(F)cc2)cc1 [Example 13e]

Outgoing:
1. 137 to 138 °C
2. 134 to 136 °C

###

Molecular target: COX-2 (Homo sapiens, UniProt P35354)
Construct: To induce COX-2, lipopolysaccharide (LPS) from E. coli; endogenous in cells; host or cells: heparinised human whole blood from donors, with COX-2 induced by E. coli LPS
Sequence (P35354 18-604): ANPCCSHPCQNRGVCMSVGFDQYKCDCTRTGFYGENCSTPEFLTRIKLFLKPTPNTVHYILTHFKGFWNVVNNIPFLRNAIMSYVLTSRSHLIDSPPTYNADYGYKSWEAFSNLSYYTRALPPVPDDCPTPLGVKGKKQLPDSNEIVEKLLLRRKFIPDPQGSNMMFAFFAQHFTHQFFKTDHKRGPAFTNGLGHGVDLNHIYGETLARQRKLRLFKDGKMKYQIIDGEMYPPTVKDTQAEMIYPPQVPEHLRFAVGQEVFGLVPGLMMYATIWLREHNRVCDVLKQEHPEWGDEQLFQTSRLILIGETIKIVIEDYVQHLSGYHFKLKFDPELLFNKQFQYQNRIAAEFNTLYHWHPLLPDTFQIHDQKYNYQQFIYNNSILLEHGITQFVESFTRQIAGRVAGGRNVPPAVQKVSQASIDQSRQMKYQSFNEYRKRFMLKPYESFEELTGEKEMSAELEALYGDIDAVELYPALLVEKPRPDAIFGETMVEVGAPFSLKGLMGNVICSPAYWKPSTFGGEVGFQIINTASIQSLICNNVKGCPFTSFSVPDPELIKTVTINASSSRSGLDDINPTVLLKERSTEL
Assay: Human COX-2 enzyme activity in human whole blood (LPS-induced, thromboxane B2 EIA)
Format: cell-based
Details: 1 μM; human whole blood; LPS induction; read-out: COX-2 Inhibition (% at 1 μM)
Result Type: inhibition at 1 µM
A bare number is not enough; add the unit after it.

CS(=O)(=O)c1ccc(-c2cc(CCCC(=O)OCCCO[N+](=O)[O-])nn2-c2ccc(C(F)(F)F)cc2)cc1 [Example 47f] | 30%
CS(=O)(=O)c1ccc(-c2cc(C(=O)CCCO[N+](=O)[O-])nn2C2CCCCC2)cc1 | 55%
CS(=O)(=O)c1ccc(-c2cc(C(=O)CCCO[N+](=O)[O-])nn2-c2ccc(Cl)cc2)cc1 [Example 44e] | 30%
CS(=O)(=O)c1ccc(-c2cc(C(F)(F)OCCCO[N+](=O)[O-])nn2-c2ccccc2)cc1 | 50%
CS(=O)(=O)c1ccc(-c2cc(C(=O)CCCO)nn2C2CCCCC2)cc1 | 60%
Cc1ccc(-n2nc(C(=O)CCCO[N+](=O)[O-])cc2-c2ccc(S(C)(=O)=O)cc2)cc1 [Example 12e] | 70%
NS(=O)(=O)c1ccc(-c2c(-c3ccccc3)noc2COCCS(=O)(=O)CCO)cc1 [Example 37b] | 35%
Cc1ccc(-n2nc(C(=O)CCCO)cc2-c2ccc(S(C)(=O)=O)cc2)cc1 [Example 12d] | 15%
CS(=O)(=O)c1ccc(-c2cc(/C=C/CCO[N+](=O)[O-])nn2C2CCCCC2)cc1 [Example 21c] | 45%
CS(=O)(=O)c1ccc(-c2cc(/C=C/CO[N+](=O)[O-])nn2C2CCCCC2)cc1 | 0%

// for each compound below, give its inhibition at 1 µM
1. CS(=O)(=O)c1ccc(-c2cc(COCCCO[N+](=O)[O-])nn2-c2ccc(F)cc2)cc1 [Example 18e]
2. CS(=O)(=O)c1ccc(-c2cc(COCCCO[N+](=O)[O-])nn2-c2ccc(Cl)cc2)cc1
3. CS(=O)(=O)c1ccc(-c2cc(C(=O)CCCO[N+](=O)[O-])nn2-c2ccc(F)cc2)cc1 [Example 13e]
4. CS(=O)(=O)c1ccc(-c2cc(COCCO[N+](=O)[O-])nn2C2CCCCC2)cc1 [Example 15e]
5. CS(=O)(=O)c1ccc(-c2cc(C(F)(F)OCCCO)nn2-c2ccccc2)cc1
6. CS(=O)(=O)c1ccc(-c2cc(/C=C/CO)nn2C2CCCCC2)cc1 [Example 31c]
7. Cc1ccc(-n2nc(COCCCO)cc2-c2ccc(S(C)(=O)=O)cc2)cc1
8. COc1ccc(-n2nc(COCCCO)cc2-c2ccc(S(C)(=O)=O)cc2)cc1 [Example 10d]

Outgoing:
55%
65%
55%
35%
50%
0%
20%
25%

// for each compound below, give its inhibition at 1 µM
1. CS(=O)(=O)c1ccc(-c2cc(/C=C/CCO[N+](=O)[O-])nn2-c2ccccc2)cc1 [Example 11f]
2. NS(=O)(=O)c1ccc(-c2c(-c3ccccc3)noc2COCC(F)(F)C(F)(F)CO[N+](=O)[O-])cc1 [Example 33b]

Outgoing:
["55%", "90%"]

// for each compound below, give its inhibition at 1 µM
1. COc1ccc(-n2nc(C(=O)CCCO)cc2-c2ccc(S(C)(=O)=O)cc2)cc1 [Example 24d]
2. CS(=O)(=O)c1ccc(-c2cc(CO[N+](=O)[O-])nn2C2CCCCCC2)cc1

Outgoing:
50%
60%

// for each compound below, give its inhibition at 1 µM
1. CC(O)CCOCc1cc(-c2ccc(S(C)(=O)=O)cc2)n(-c2ccccc2)n1 (centres unmarked) [Example 19b]
2. CS(=O)(=O)c1ccc(-c2cc(C(=O)CCCO)nn2-c2ccc(C(F)(F)F)cc2)cc1 [Example 23d]

Outgoing:
20%
0%

// for each compound below, give its inhibition at 1 µM
1. CS(=O)(=O)c1ccc(-c2cc(COCCCO[N+](=O)[O-])nn2-c2ccc(C(F)(F)F)cc2)cc1
2. CS(=O)(=O)c1ccc(-c2cc(C(=O)CCCO)nn2-c2ccc(F)cc2)cc1 [Example 13d]

Outgoing:
["60%", "25%"]
